Target: T1, hBCMA (human BCMA) (Homo sapiens, UniProt Q02223)
T1 sequence (Q02223 1-184): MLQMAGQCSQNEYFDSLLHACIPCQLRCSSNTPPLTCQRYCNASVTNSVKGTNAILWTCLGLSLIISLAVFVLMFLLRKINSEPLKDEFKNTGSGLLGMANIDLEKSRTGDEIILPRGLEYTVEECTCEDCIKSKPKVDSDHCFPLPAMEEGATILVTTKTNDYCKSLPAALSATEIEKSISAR
Assay: Kinetics and affinity of hBCMA/human IgG interactions by SPR (Bio-Rad Proteon XPR36)
Format: binding
Conditions: human BCMA, 37° C.
The molecules listed here are annotated with their ka Human.

MOLECULE	UNIT TAG	ka Human
COMBO_Rd4_6 nM_C12: anti-BCMA antibody (antibody, V domains shown) VH: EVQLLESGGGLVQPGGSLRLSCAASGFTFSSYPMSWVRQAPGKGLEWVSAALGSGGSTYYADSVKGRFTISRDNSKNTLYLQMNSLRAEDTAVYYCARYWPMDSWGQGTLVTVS VL: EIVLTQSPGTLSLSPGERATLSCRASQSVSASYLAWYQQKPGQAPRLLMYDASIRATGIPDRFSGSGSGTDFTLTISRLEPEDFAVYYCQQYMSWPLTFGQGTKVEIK	M⁻¹ s⁻¹	1.38e+07
C01_Rd4_0.6 nM_C09: anti-BCMA antibody (antibody, V domains shown) VH: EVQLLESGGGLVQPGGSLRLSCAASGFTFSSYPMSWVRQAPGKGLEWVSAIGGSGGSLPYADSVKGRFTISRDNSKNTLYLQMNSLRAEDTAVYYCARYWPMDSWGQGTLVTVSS VL: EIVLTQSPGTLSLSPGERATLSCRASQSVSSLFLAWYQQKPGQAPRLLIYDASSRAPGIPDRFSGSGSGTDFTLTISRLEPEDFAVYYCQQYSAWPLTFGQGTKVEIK	M⁻¹ s⁻¹	1.51e+07
